Target: human STAT6/pIL-4Rα (Homo sapiens)
Construct: histidine tag
Sequence (P42226 123-658): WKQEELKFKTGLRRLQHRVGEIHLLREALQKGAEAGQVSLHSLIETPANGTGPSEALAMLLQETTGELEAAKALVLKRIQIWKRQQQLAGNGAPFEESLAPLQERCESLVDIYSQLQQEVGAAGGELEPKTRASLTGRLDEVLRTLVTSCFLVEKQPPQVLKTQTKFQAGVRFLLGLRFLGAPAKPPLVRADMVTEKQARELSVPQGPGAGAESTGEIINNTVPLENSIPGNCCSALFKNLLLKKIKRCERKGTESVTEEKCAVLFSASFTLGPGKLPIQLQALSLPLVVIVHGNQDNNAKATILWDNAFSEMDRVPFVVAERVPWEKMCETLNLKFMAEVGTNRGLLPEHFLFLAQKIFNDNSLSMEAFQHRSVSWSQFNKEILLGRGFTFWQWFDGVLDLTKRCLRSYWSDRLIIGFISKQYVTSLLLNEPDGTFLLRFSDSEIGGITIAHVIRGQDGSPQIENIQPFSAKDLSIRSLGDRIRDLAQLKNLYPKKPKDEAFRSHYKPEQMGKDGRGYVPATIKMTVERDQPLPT
Test: Binding inhibitory activity between human STAT6/pIL-4Rα by fluorescence polarization method
Settings: rhSTAT6 (123-658) / FAM-pIL-4Rα peptide
The following molecules are listed with their measured IC50 values.
Give your result in nM as a bare value.

Examples from the recorded data:
# return IC50 for `CCn1c(-c2ccc(-n3c(C)nn(C)c3=O)cc2)cc2cc(C(F)(F)F)cc(C(=O)Nc3ccc4c(c3)NC(=O)C4)c21` , test system: human STAT6/pIL-4Rα (Homo sapiens)
4060

Fill: IC50 (human STAT6/pIL-4Rα (Homo sapiens)) for this molecule `CCn1c(-c2ccc(-n3c(C)nn(C)c3=O)cc2)cc2ncnc(C(=O)Nc3ccc(F)c(C(N)=O)c3)c21`
430

Others:
State, for human STAT6/pIL-4Rα (Homo sapiens), measured IC50 of the molecule listed here: CCn1c(-c2ccc(N3C(=O)C(C)CC3C)cc2)nc2cc(C(F)(F)F)cc(C(=O)Nc3cccc(C(N)=O)c3)c21 (single isomer, unassigned) [Ex. 13]
9090

Name the value of IC50 reported for `Cc1nn(C)c(=O)n1-c1ccc(-c2cc3ccnc(C(=O)Nc4cccc(C(N)=O)c4F)c3n2C)cc1` when tested on human STAT6/pIL-4Rα (Homo sapiens).
430

Provide human STAT6/pIL-4Rα (Homo sapiens) IC50 reading for `CCn1c(-c2ccc(-n3ccccc3=O)cc2)nc2cc(C(F)(F)F)cc(C(=O)Nc3cccc(C(N)=O)c3C)c21` .
3260

Enter measured IC50, system human STAT6/pIL-4Rα (Homo sapiens), for the molecule shown: `Cc1nn(C)c(=O)n1-c1ccc(-c2cc3ccnc(C(=O)Nc4ccc(F)c(C(N)=O)c4)c3n2CCOCC(F)(F)F)cc1`
330

Enter measured IC50, system human STAT6/pIL-4Rα (Homo sapiens), for the molecule shown: `CCn1c(-c2ccc(-n3c(C)nn(C)c3=O)cc2)cc2ccnc(C(=O)Nc3ccc(F)c(C(N)=O)c3)c21`
380

State IC50 on human STAT6/pIL-4Rα (Homo sapiens). Entry: `COCCn1c(-c2ccc(-n3c(C)nn(C)c3=O)cc2)cc2cc(C(F)(F)F)cc(C(=O)Nc3cccc(NS(C)(=O)=O)n3)c21`
590

GET IC50 where system = human STAT6/pIL-4Rα (Homo sapiens) and item = `COCCn1c(-c2ccc(-n3c(C)nn(C)c3=O)cc2)cc2cc(C(F)(F)F)cc(C(=O)Nc3cncs3)c21`
1780

GET IC50 | system: human STAT6/pIL-4Rα (Homo sapiens) | item: `CCn1c(-c2ccc(-n3c(C)nn(C)c3=O)cc2)cc2ccnc(C(=O)Nc3cccc(C(=O)Nc4cncn(C)c4=O)c3F)c21`
420

Fill in IC50 for `COCCn1c(-c2ccc(-n3c(C)nn(C)c3=O)cc2)cc2cc(C(F)(F)F)cc(C(=O)Nc3cccc(C(=O)Nc4ccn(C)n4)c3)c21` tested with human STAT6/pIL-4Rα (Homo sapiens).
320

Fill: IC50 (human STAT6/pIL-4Rα (Homo sapiens)) for this molecule `CCn1c(-c2ccc(-n3c(C)nn(C)c3=O)cc2)cc2c(F)ccc(C(=O)Nc3ccc(F)c(C(N)=O)c3)c21`
360

Report IC50 from human STAT6/pIL-4Rα (Homo sapiens) testing of `Cc1nn(C)c(=O)n1-c1ccc(-c2cc3cc(C(F)(F)F)cc(C(=O)Nc4cccc(C(N)=O)c4)c3n2CC2(C#N)CC2)cc1`
240

Under human STAT6/pIL-4Rα (Homo sapiens): report IC50 of `CCCc1cc(C(=O)Nc2cccc(C(N)=O)c2)c2c(c1)nc(-c1ccc(N(C)C(C)=O)cc1)n2CCOC` .
2350

Under human STAT6/pIL-4Rα (Homo sapiens): report IC50 of `CCn1c(-c2ccc(-n3c(C)nn(C)c3=O)cc2)cc2ccnc(C(=O)Nc3cccc(C(=O)NCC#N)c3)c21` .
380

With human STAT6/pIL-4Rα (Homo sapiens) as the test system, provide measured IC50 for this molecule: `COCCn1c(-c2ccc(-n3c(C)nn(C)c3=O)cc2)cc2cc(C(F)(F)F)cc(C(=O)Nc3cccc(CO)c3)c21`
430

The reported measurements were obtained from patent US20260092054A1.
